Where these numbers come from: patent US12174198B2

# experimental.target: UniProt G5EBV6
# Sequence (G5EBV6 whole entry): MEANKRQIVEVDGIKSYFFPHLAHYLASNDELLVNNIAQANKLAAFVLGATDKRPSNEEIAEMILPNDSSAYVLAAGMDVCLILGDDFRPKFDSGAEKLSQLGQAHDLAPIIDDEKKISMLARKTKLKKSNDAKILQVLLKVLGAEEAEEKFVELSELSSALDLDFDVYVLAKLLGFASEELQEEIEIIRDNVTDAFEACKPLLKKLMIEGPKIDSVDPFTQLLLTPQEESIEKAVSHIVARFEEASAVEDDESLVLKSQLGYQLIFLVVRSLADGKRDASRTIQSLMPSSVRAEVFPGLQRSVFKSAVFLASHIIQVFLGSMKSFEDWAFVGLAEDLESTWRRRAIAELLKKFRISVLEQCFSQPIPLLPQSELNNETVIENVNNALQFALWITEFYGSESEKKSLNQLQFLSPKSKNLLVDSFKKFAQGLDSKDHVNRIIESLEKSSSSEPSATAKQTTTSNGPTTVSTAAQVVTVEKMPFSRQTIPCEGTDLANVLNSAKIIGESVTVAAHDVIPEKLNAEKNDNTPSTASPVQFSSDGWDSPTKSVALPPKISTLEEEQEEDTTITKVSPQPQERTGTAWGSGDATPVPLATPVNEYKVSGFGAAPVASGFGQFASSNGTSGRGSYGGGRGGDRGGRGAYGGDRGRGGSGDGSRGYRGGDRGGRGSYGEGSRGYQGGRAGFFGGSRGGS
# measurement.description: Fluorescence imaging of dye partitioning in PGL-3 condensates (I-in, I-out)
# Type: physicochemical
# measurement.conditions: outside PGL-3 condensate; 10 μM dye, 5 μM protein; average of three images; one day of experiments
Counter-ions that a name gives are not always drawn.
Use 1000 as the dividing line for Intensity Outside with Dye Average, with the line itself on the rule met side and lower values as rule not met.

{"compound": "CC(=O)c1cc2cc3c4c(c2oc1=O)CCCN4CCC3", "qualitative.label": "rule not met"}
{"compound": "O=C1OC2(c3ccc(O[C@@H]4O[C@H](CO)[C@H](O)[C@H](O)[C@H]4O)cc3Oc3cc(O[C@@H]4O[C@H](CO)[C@H](O)[C@H](O)[C@H]4O)ccc32)c2ccccc21 [Dye 12, Fluorescein di(β-D-galacto-pyranoside)]", "qualitative.label": "rule not met"}
{"compound": "N#CC1=c2cc3c4c(c2Oc2c1cc1c5c2CCCN5CCC1)CCC[N+]=4CCC3", "qualitative.label": "rule not met"}
{"compound": "O=C(O)c1cc2cc3c4c(c2oc1=O)CCCN4CCC3", "qualitative.label": "rule met"}
{"compound": "N=C(N)c1ccc(-c2cc3ccc(C(=N)N)cc3[nH]2)cc1", "qualitative.label": "rule not met"}
{"compound": "CCN(CC)c1ccc2c(-c3ccccc3C(=O)O)c3ccc(=[N+](CC)CC)cc-3oc2c1", "qualitative.label": "rule met"}
{"compound": "O=C1OC2(c3ccc(O)cc3Oc3cc(O)ccc32)c2ccccc21", "qualitative.label": "rule met"}
{"compound": "O=C([O-])c1ccccc1C1=c2cc3c4c(c2Oc2c1cc1c5c2CCCN5CCC1)CCC[N+]=4CCC3 [Dye 17, Rhodamine 101 inner salt]", "qualitative.label": "rule met"}
{"compound": "CC(=O)Oc1ccc2c(c1)Oc1cc(OC(C)=O)ccc1C21OC(=O)c2ccccc21 [Dye 9, Fluorescein diacetate]", "qualitative.label": "rule not met"}
{"compound": "O=c1cc(C(F)(F)F)c2ccc(O)cc2o1 [Dye 2, 7-Hydroxy-4-(trifluoromethyl)-coumarin]", "qualitative.label": "rule not met"}
{"compound": "O=C(CCCC[C@@H]1SCC2NC(=O)NC21)NCCNC(=O)c1ccc(-c2c3ccc(=O)cc-3oc3ccc(O)cc23)c(C(=O)O)c1 (some centres unmarked)", "qualitative.label": "rule met"}
{"compound": "COC(=O)c1ccccc1-c1c2ccc(=N)cc-2oc2cc(N)ccc12.Cl", "qualitative.label": "rule met"}
{"compound": "CC(=O)N[C@H]1[C@H](Oc2ccc3c(c2)Oc2cc(O)ccc2C32OC(=O)c3ccccc32)O[C@H](CO)[C@H](O)[C@@H]1O (some centres unmarked)", "qualitative.label": "rule met"}
{"compound": "CC/N=c1/cc2oc3cc(NCC)c(C)cc3c(-c3ccccc3C(=O)NCCOCCOCCN)c-2cc1C.O=C(O)C(F)(F)F", "qualitative.label": "rule met"}
